Numbers sourced from paper PMC10932284.

# TARGET: MtCA2 (Mycobacterium tuberculosis)
# Sequence (P9WPJ9 whole entry, looked up): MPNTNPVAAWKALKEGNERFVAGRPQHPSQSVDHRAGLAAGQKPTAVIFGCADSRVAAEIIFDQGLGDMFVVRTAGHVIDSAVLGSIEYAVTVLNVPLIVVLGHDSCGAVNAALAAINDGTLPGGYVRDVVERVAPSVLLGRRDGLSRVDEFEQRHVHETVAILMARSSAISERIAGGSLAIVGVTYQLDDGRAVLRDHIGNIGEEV
Labelling field: enter y if recorded Ki is less than 200 nM. Enter n if it equals or exceeds that cut-off.

Worked set:
{"INPUT SMILES": "O=C1Nc2ccc(C(=O)O)cc2S(=O)(=O)N1", "TARGET": "MtCA2 (Mycobacterium tuberculosis)", "CLASS ASSIGNMENT": "n"}
{"INPUT SMILES": "Cc1ccc2c(c1)S(=O)(=O)NC(=O)N2", "TARGET": "MtCA2 (Mycobacterium tuberculosis)", "CLASS ASSIGNMENT": "y"}
{"INPUT SMILES": "COc1ccc2c(c1)S(=O)(=O)NC(=O)N2", "TARGET": "MtCA2 (Mycobacterium tuberculosis)", "CLASS ASSIGNMENT": "y"}

Is Ki strictly under 200 nM for the entry `Cc1cc(C)c2c(c1)NC(=O)NS2(=O)=O` ?
n

Another compound to look at: `O=C1NS(=O)(=O)c2cccc3c2N1CC3`
n

Another compound to look at: `O=C1Nc2c(ccc3ccccc23)S(=O)(=O)N1`
n

Another compound to look at: `O=C1Nc2c(Cl)cccc2S(=O)(=O)N1`
n

Another compound to look at: `O=C1Nc2ccc(F)cc2S(=O)(=O)N1`
y

Another compound to look at: `Cc1ccc(C)c2c1NC(=O)NS2(=O)=O`
n

Another compound to look at: `O=C1Nc2c(Br)cccc2S(=O)(=O)N1`
n

Another compound to look at: `O=C1Nc2ccc(Cl)cc2S(=O)(=O)N1`
y
